Tested on: bone marrow cells (BMM), TRAP-positive multinucleated osteoclasts
test description: RANKL-induced osteoclast differentiation of BMM, TRAP staining
Type: cell-based, ICR mice
details: Mus musculus, 96 h, RANKL and 30 ng/ml M-CSF, 4 days, TRAP-positive cells having 3 or more nuclei, read-out: IC50 (μM), multinucleated osteoclast formation
parameter: IC50

Worked examples, 5 molecules total:
| molecule | IC50 |
| --- | --- |
| COc1cc(C(=O)N(C(C)C)C(C)C)ccc1OCCCCCOc1nc2ccccc2s1 [Compound K11] | 1.56 µM |
| Clc1cccc(OCCCCCOc2nc3ccccc3s2)c1 [Compound K14] | 7.77 µM |
| COc1cc(C(=O)N(C(C)C)C(C)C)ccc1OCCCCOc1nc2ccccc2s1 [Compound K22] | 2.2 µM |
| COc1ccccc1OCCCCCOc1nc2ccccc2s1 [Compound K17] | 23.4 µM |
| c1ccc(OCCCCOc2nc3ccccc3s2)cc1 [Compound K19, 2-(4-Phenoxybutoxy)benzo[d]thiazole] | 17.7 µM |

Query molecule follows.
Req: Hello, I am looking for reported IC50 with bone marrow cells (BMM), TRAP-positive multinucleated osteoclasts for Fc1ccccc1OCCCCCOc1nc2ccccc2s1 [Compound K18] . Could you help?
Resp: 18.4 µM

Reference source for all entries: patent US8604214B2
